The origin of these recorded values is patent US12673052B2.

# Procedure text: Repeat-dose toxicity studies (7-day range-finding, definitive 28-day, 14-day recovery)
# Type: in vivo, dogs
# Run conditions: both sexes, dog, plasma, oral; 18 mg/kg/day, daily dosing for 28 days
# Description: The nonclinical toxicity of Compound 1 was characterized in dose range-finding 7-day and definitive 28-day repeat-dose studies in rats and dogs, and in in vitro bacterial and mammalian genotoxicity bioassays. Compound 1 was also evaluated in definitive neurobehavioral, respiratory and cardiovascular safety pharmacology studies.
Metric: Cmax at 28 days

Inquiry: Please indicate Cmax at 28 days recorded for CNC(=O)c1cc2c(Oc3ccc(NC(=O)C4(C(=O)Nc5ccc(F)cc5)CC4)cc3)ccnc2cc1OC
Reply text: ~7 µM
